Target: Human immunodeficiency virus type 1 integrase (Human immunodeficiency virus 1, UniProt Q7ZJM1)
Sequence (Q7ZJM1 whole entry): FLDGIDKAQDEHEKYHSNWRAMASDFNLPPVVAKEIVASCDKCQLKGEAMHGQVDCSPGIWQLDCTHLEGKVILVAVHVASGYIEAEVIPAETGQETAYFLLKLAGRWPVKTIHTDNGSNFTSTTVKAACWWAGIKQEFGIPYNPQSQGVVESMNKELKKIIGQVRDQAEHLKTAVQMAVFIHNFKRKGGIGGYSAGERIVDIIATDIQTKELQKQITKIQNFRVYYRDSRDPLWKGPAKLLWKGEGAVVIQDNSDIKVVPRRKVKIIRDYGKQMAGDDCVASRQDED
measured-attribute: pIC50
As a rule, pIC50 stands for the negative log10 of the concentration, concentration in M.

QUERY: State, in one line, measured pIC50 of O=C(O)/C(O)=C/C(=O)c1ccc2[nH]cc(C(=O)/C=C(\O)C(=O)O)c(=O)c2c1
RESULT: 6.37

---
QUERY: Look up and report measured pIC50 for this entry: Cc1cccc(/C=C/c2ccc3ccc(C(=O)O)c(O)c3n2)c1C
RESULT: 7.22

QUERY: Please list pIC50 recorded for the compound CCOC(=O)/C(O)=C/C(=O)c1cn(Cc2cccc(F)c2)c2ccccc2c1=O [RDS-1624]
RESULT: 6.49

QUERY: Name the recorded pIC50 of the compound listed here: O=C(O)/C(O)=C/C(=O)c1ccc2c(c1)c(=O)c(C(=O)O)cn2Cc1ccc(F)cc1 [13, RDS-1607]
RESULT: 5.96

QUERY: Give a short answer stating reported pIC50 for CC[C@@H](CO)n1cc(CO)c(=O)c2cc(Cc3ccccc3F)c(OC)cc21 .
RESULT: 8.14

QUERY: // Input: O=C(O)/C(O)=C/C(=O)c1cn(Cc2cccc(F)c2)c2ccccc2c1=O . Output its pIC50 only.
RESULT: 7.50

QUERY: Name the recorded pIC50 of the item O=C(O)/C(O)=C/C(=O)c1ccc2c(c1)c(=O)c(C(=O)/C=C(\O)C(=O)O)cn2-c1ccccc1 in your answer.
RESULT: 7.92
